// data source = ChEMBL document CHEMBL1201861

test system: HSC-3; test: cells; format: functional, cell-based, Homo sapiens; settings: Homo sapiens, HSC-3
Description: SANGER: Inhibition of human HSC-3 cell growth in a cell viability assay.
pIC50: −log10 of the molar value.
propertyLabel: pIC50

{"smilesCode": "CC1(C)CNc2cc(NC(=O)c3cccnc3NCc3ccncc3)ccc21", "valueObserved": "< 5.70"}
{"smilesCode": "CS(=O)(=O)c1ccc(C(=O)Nc2ccc(Cl)c(-c3ccccn3)c2)c(Cl)c1", "valueObserved": "< 5.00"}
{"smilesCode": "CO[C@H]1C[C@@H]2CC[C@@H](C)[C@@](O)(O2)C(=O)C(=O)N2CCCC[C@H]2C(=O)O[C@H]([C@H](C)C[C@@H]2CC[C@@H](OC(=O)C(C)(CO)CO)[C@H](OC)C2)CC(=O)[C@H](C)/C=C(\\C)[C@@H](O)[C@@H](OC)C(=O)[C@H](C)C[C@H](C)/C=C/C=C/C=C/1C", "valueObserved": 7.41}

====

test system: MDA-MB-231; test: cells; type: functional, cell-based, Homo sapiens; details: Homo sapiens, MDA-MB-231
Description: SANGER: Inhibition of human MDA-MB-231 cell growth in a cell viability assay.

{"smilesCode": "CS(=O)(=O)c1ccc(C(=O)Nc2ccc(Cl)c(-c3ccccn3)c2)c(Cl)c1", "measurementTarget": "MDA-MB-231", "IC50": "> 10 µM"}
{"smilesCode": "N#Cc1c(O)c2c(-c3ccc(-c4ccccc4O)cc3)csc2[nH]c1=O", "measurementTarget": "MDA-MB-231", "IC50": "> 1.02 µM"}
{"smilesCode": "Cc1cn(-c2cc(NC(=O)c3ccc(C)c(Nc4nccc(-c5cccnc5)n4)c3)cc(C(F)(F)F)c2)cn1", "measurementTarget": "MDA-MB-231", "IC50": "> 2 µM"}
{"smilesCode": "C=C(c1ccc(C(=O)O)cc1)c1cc2c(cc1C)C(C)(C)CCC2(C)C", "measurementTarget": "MDA-MB-231", "IC50": "> 8 µM"}
{"smilesCode": "COc1cc2c(Nc3ccc(NC(=O)c4ccccc4)cc3)ncnc2cc1OCCCN1CCOCC1", "measurementTarget": "MDA-MB-231", "IC50": "> 4 µM"}
{"smilesCode": "CCN(CC)CCCCNc1ncc2cc(-c3cc(OC)cc(OC)c3)c(NC(=O)NC(C)(C)C)nc2n1", "measurementTarget": "MDA-MB-231", "IC50": "> 2 µM"}

====

Below, each entry is listed alongside its reported IC50.
system: SCC-25; test: cells; format: functional, cell-based, Homo sapiens; details: scc-25;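 further: growth inhibition of SCC-25 cells, measured with a cell viability assay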
Description: SANGER: Inhibition of human SCC-25 cell growth in a cell viability assay.

{"residueString": "CISPLATIN", "measurementTarget": "SCC-25", "valueUnits": "µM", "IC50": 64.6}
{"residueString": "BLEOMYCIN", "measurementTarget": "SCC-25", "valueUnits": "µM", "IC50": 0.415}

====

test system: A-375; assay: cells; type: functional, cell-based, Homo sapiens; conditions: Homo sapiens, A-375;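 further: growth inhibition of A375 cells, read out with a cell viability assay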
Description: SANGER: Inhibition of human A375 cell growth in a cell viability assay.

{"smilesCode": "CCC/C=C/C=C/C(=O)O[C@H]1/C(=C/C(=O)OC)C[C@H]2C[C@H]([C@@H](C)O)OC(=O)C[C@H](O)C[C@@H]3C[C@H](OC(C)=O)C(C)(C)[C@](O)(C[C@@H]4C/C(=C/C(=O)OC)C[C@H](/C=C/C(C)(C)[C@]1(O)O2)O4)O3", "IC50": "> 8 nM"}
{"smilesCode": "Cc1cc([N+](=O)[O-])ccc1NS(=O)(=O)c1cc(Cl)ccc1Cl", "IC50": "3580 nM"}
{"smilesCode": "N#Cc1c(O)c2c(-c3ccc(-c4ccccc4O)cc3)csc2[nH]c1=O", "IC50": "> 1020 nM"}
{"smilesCode": "CS(=O)(=O)c1ccc(C(=O)Nc2ccc(Cl)c(-c3ccccn3)c2)c(Cl)c1", "IC50": "> 10000 nM"}
{"smilesCode": "CCN(CC)CCCCNc1ncc2cc(-c3cc(OC)cc(OC)c3)c(NC(=O)NC(C)(C)C)nc2n1", "IC50": "> 2000 nM"}
